assayComment: Plasma pharmacokinetics and brain distribution after single IV, IP and oral administration
Assay type: in vivo
setupConditions: male, C57BL/6, mouse, brain/plasma, iv, 10 mg/kg, IV 10 mg/kg, 1 hr; read-out: Brain-to-plasma ratio
Counter-ions that a name gives are not always drawn.
reportedMetric: Kp at 1 h
Format: numeric value only, no unit, no commentary.

Supply reported Kp at 1 h belonging to this compound: Cc1nc2ccccn2c1-c1csc(Nc2ccc3c(c2)OC(F)(F)O3)n1 [Compound 16, hydrochloride] 2.78

====

assayComment: Plasma pharmacokinetics and brain distribution after single IV, IP and oral administration
Assay type: in vivo
setupConditions: male, C57BL/6, mouse, in vivo; brain, IP 10 mg/kg
Structures can show the parent of a compound that is named as a salt.
reportedMetric: Cmax (ng/g)
Answer format: numeric, ng/g implied, no suffix.

Supply reported Cmax belonging to this compound: [2H]C1([2H])Oc2ccc(Nc3nc(-c4c(C)nc5ccccn45)cs3)cc2O1 [Compound 17, hydrochloride] 288
